Assay: Inhibition of human cytomegalovirus DNA polymerase catalytic subunit UL54 assessed as incorporation of [3H]dTTP
Design: species or system Human betaherpesvirus 5
Overview of recorded IC50 for various molecules
Measure Name: IC50 (µM)

Line Notation | Measure Name | Value Comparator | Experimental Value
O=C(NCP(=O)(O)O)OCc1ccccc1 | IC50 | = | 3.1
Nc1cc2c(=O)c(C(=O)O)cn(C3CC3)c2cc1N1CCN(c2ccccn2)CC1 | IC50 | > | 100
